# Method Summary: Test B: cytotoxicity in mock-infected MT-4 cells engineered with GFP under a constitutional promoter
# Type: cell-based
# Condition Parameters: human
Entries and their measured CC50 follow.
Metric: CC50 (µM)

>>> numeric_result("N#C/C=C/c1cc(F)c(Nc2nnc(Cl)c(Nc3ccc(C#N)cc3)n2)c(F)c1 [Compound 62]")
25.1
>>> numeric_result("Cc1cc(/C=C/C(N)=O)cc(C)c1Nc1nc(Nc2ccc(C#N)cc2)nnc1C [Compound 58]")
10
>>> numeric_result("Cc1cc(/C=C/C(N)=O)cc(C)c1Oc1nc(Nc2ccc(C#N)cc2)nnc1C [Compound 48]")
25.1

----------
Metric: melting point

>>> result("N#C/C=C/c1cc(F)c(Nc2nnc(Cl)c(Nc3ccc(C#N)cc3)n2)c(F)c1 [Compound 62]")
"276 to 277 °C"
>>> result("N#CCCc1cc(Cl)c(Nc2nnc(Cl)c(Nc3ccc(C#N)cc3)n2)c(Cl)c1 [Compound 74]")
"256 to 257 °C"
>>> result("Cc1cc(CCC#N)cc(C)c1Nc1nnc(Cl)c(Nc2ccc(C#N)cc2)n1")
"266 to 267 °C"
>>> result("N#CCCc1cc(Cl)c(Nc2nnc(Cl)c(Nc3ccc(C#N)cc3)n2)c(Br)c1 [Compound 75]")
"252 to 254 °C"
